Test: Activating wavelength by UV spectrophotometer (diethylene glycol dimethyl ether)
Assay type: physicochemical
Details: Table 3
Method: The products of Examples 1, 5, 8, 9, and Comparative Examples 1 and 2 were dissolved in diethylene glycol dimethyl ether. The concentrations of the resulting solutions were approximately 0.5 milligram per milliliter. Each solution was tested in a UV spectrophotometer to determine its activating wavelength. The activating wavelength reported in Table 1 is the wavelength at which activation of the photochromic compound occurs in diethylene glycol dimethyl ether. […]
Assign ACTIVATING WAVELENGTH to each entry below.
Give bare numbers, in nm.

Here's what some known entries look like.
* COC(=O)c1cc2c3c(ccc2cc1OC)OC(c1ccc(OC)cc1)(c1ccccc1F)C=C3 (stereo not drawn) | 384
* COc1ccc(C2(c3ccc(OC)cc3OC)C=Cc3c(ccc4ccccc34)O2)cc1 (stereo not drawn) | 348

Continue with the next compound.
Value of measured ACTIVATING WAVELENGTH for the entry COc1ccc(C2(c3ccccc3F)C=Cc3c(ccc4cc(OC)ccc34)O2)cc1 (stereo not drawn) : 359

Measured values drawn from patent US5637262A for this set.
